Recorded yeast surface expression, one value per entry.
B1: scFv; the commonest letter at each place (parent)
chain 1: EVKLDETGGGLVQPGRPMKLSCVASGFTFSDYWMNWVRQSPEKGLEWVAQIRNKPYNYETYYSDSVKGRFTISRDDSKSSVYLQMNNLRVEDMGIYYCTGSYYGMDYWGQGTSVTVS
chain 2: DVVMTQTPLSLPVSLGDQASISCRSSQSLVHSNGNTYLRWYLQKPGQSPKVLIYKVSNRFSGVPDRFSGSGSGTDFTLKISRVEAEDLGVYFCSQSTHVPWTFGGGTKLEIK

Variants of: B1
Test: yeast surface expression (ratio to wild type); higher = more expressed
Conditions: format: scFv 4-4-20, heavy + light
Respond numerically, and do not add a unit to the figure.

Recorded results for 6 variants are shown here.
chain 1 S101Q Y102R = 1.07
chain 1 F29D Y32C = 0.924
chain 1 W33S = 0.845
chain 1 M105V D106Y = 0.489
chain 1 Y107V W108Y = 0.724
chain 1 G100F G109N = 0.41

stdin: Look up yeast surface expression of chain 1 Y103H G104F and report it.
stdout: 0.477
